# measured target: α4β7 integrin (Homo sapiens (Human), UniProt P13612+P26010)
# Sequence (P13612 34-1032): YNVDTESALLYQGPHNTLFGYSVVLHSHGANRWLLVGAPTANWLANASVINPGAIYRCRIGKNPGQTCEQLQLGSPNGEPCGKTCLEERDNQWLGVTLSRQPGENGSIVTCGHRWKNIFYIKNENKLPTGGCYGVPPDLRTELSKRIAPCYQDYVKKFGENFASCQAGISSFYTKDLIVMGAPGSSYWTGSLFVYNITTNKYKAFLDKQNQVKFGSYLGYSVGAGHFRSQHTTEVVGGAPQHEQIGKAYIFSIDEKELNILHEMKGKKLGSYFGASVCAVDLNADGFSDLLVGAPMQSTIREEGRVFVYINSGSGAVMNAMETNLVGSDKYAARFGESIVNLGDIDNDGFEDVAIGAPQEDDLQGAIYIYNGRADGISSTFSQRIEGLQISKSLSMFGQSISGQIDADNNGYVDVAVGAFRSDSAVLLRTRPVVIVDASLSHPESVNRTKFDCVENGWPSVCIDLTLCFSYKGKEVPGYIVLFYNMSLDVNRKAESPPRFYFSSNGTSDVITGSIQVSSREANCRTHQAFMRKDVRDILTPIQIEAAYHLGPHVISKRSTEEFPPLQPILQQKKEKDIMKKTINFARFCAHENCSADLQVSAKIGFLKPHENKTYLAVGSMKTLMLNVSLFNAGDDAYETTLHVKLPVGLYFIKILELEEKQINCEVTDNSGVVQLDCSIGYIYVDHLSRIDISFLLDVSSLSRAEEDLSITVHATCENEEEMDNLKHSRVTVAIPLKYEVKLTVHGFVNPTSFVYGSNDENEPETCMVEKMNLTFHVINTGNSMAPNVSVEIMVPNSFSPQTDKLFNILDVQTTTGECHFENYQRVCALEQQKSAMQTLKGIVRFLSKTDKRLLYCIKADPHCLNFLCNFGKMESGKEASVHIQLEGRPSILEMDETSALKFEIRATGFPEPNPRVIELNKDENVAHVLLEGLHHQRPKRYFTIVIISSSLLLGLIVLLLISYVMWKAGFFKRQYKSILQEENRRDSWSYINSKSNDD
# Sequence (P26010 20-798): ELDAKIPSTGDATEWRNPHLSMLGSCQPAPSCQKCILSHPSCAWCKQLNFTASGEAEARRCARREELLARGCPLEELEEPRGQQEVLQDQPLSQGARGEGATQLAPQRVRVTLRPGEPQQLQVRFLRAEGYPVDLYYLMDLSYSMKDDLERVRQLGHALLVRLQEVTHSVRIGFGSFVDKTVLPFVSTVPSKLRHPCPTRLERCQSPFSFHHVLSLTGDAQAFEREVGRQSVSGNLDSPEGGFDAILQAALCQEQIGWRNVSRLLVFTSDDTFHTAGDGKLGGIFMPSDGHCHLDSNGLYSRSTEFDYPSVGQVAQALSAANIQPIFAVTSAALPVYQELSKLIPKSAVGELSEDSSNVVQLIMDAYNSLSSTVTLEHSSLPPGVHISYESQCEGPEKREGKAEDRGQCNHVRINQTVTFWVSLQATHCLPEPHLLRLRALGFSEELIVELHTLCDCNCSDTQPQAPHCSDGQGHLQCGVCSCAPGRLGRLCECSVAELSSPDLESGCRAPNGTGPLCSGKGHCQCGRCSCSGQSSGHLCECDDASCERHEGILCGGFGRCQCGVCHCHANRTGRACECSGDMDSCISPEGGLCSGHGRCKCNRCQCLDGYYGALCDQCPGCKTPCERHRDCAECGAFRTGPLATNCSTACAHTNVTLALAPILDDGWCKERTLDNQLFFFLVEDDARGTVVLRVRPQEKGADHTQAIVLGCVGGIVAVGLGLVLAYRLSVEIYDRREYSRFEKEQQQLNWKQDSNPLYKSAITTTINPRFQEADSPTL
# test method notes: Integrin Adhesion Assay: Protocol 4 (MAdCAM-coated plate, RPMI-8866 cells with stable LOF mutation of the ITGB1 gene)
# Assay type: cell-based
# condition summary: RPMI-8866 cells with stable LOF mutation of the ITGB1 gene; read-out: Mean IC50 α4β7 KO^a
outcome measure: IC50

For each of the items listed, what is its IC50?
1. COc1ccc(CN2CCCCC2)c(OC)c1-c1cccc2c(C[C@H](NC(=O)c3c(F)cccc3C(C)C)C(=O)O)cccc12 [Compound 571]
2. O=C(O)[C@H](Cc1cccc2c(-c3nccc4c(CN5CCC6(CCCCC6)CC5)cccc34)cccc12)NC(=O)C1(C(F)(F)F)CCN(CC(F)(F)F)CC1 [Compound 661]
3. COc1ccc(CN2CCC3(CCCCC3)CC2)c(OC)c1-c1cccc2c(C[C@H](NC(=O)c3c(C)cccc3F)C(=O)O)cccc12 [Compound 654]

Result ::
1. < 10 nM
2. 10 to 100 nM
3. < 10 nM
